test: Serum binding by ultrafiltration of porcine serum; assay type: in vitro ADME; conditions: pig, 8 mcg/ml, microbiological assay, read-out: % bound to pig serum (converted)
OBSERVATION_TYPE: fraction unbound

>>> recorded_measurement("C/C(=C\\C(=O)OCCCCCCS(N)(=O)=O)CC1OCC(CC2OC2C(C)C(C)O)C(O)C1O (stereo not shown) [Example 2, 6-Sulphamoylhexyl monate A]")
0.287
>>> recorded_measurement("C/C(=C\\C(=O)OCCCCCCCCS(N)(=O)=O)CC1OCC(CC2OC2C(C)C(C)O)C(O)C1O (stereo not shown) [Example 3, 8-Sulphamoyloctyl monate A]")
0.035
>>> recorded_measurement("C/C(=C\\C(=O)OCCCS(=O)(=O)N(C)C)CC1OCC(CC2OC2C(C)C(C)O)C(O)C1O (stereo not shown) [Example 4, 3-N,N-Dimethylsulphamoylpropyl monate A]")
0.053
>>> recorded_measurement("C/C(=C\\C(=O)OC(C)CCCCCS(N)(=O)=O)CC1OCC(CC2OC2C(C)C(C)O)C(O)C1O (stereo not shown) [Example 5, 7-Sulphamoylhept-2-yl monate A]")
0.354
